- target or test system: Vitronectin Receptor (αVβ3) (Homo sapiens, UniProt P05106+P06756)
- Construct: expressed in transfected cells; host or cells: 512P5 cells (plasma membrane preparation)
- Sequence (P06756 31-889 limits assumed): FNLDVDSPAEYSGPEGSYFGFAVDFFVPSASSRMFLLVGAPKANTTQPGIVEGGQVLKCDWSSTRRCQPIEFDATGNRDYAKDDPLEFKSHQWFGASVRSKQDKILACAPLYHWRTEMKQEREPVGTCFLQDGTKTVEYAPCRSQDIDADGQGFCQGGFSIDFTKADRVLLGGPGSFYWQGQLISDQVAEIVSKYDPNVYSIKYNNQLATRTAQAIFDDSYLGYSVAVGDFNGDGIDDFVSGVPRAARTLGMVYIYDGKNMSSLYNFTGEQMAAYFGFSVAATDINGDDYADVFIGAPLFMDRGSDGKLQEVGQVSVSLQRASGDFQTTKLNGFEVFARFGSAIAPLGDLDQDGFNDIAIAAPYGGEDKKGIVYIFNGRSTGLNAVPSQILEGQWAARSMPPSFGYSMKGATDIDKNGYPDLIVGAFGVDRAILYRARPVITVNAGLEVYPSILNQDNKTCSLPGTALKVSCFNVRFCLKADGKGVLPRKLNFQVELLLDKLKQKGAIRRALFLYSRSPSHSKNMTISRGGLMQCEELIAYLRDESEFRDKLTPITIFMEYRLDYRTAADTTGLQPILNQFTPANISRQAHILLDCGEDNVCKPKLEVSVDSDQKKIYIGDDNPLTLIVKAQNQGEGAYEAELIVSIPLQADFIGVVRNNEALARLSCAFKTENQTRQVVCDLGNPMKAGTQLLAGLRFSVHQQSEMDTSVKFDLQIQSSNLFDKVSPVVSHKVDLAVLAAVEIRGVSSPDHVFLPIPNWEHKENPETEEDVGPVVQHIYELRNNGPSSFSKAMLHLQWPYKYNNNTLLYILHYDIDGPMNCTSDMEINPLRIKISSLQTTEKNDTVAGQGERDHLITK
- Sequence (P06756 891-1048 partner limits assumed): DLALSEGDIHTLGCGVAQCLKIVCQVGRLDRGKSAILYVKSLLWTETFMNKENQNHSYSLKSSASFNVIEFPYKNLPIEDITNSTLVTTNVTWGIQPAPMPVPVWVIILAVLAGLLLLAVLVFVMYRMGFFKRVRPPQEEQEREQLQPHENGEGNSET
- Sequence (P05106 27-788): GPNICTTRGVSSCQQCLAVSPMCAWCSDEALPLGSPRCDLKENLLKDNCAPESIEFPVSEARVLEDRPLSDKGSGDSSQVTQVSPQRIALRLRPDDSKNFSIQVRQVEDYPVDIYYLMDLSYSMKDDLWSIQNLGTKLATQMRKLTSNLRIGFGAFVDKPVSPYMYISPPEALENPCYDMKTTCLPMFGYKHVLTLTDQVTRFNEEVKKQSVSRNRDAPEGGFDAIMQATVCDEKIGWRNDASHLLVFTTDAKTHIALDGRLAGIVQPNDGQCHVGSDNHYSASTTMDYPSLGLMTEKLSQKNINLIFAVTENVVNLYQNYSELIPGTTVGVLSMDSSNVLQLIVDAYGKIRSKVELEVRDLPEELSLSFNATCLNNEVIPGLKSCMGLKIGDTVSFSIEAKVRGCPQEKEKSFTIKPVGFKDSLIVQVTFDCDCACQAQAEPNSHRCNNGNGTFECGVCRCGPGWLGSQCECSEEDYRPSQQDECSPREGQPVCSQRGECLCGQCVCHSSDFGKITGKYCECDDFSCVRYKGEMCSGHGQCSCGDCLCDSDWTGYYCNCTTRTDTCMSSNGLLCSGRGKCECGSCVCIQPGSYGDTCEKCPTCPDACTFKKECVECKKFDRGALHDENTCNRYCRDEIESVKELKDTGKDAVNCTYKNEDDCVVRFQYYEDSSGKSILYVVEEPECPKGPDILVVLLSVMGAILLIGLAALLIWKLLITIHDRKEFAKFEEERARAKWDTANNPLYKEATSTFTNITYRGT
- procedure details: Vitronectin Receptor (αVβ3) Binding Test Procedure
- assay setup: @ 30 μM; % Max = percentage of the specific binding; read-out: (αVβ3) RECEPTOR BINDING, % @ concentration
Below: a set of entries, each annotated with reported remaining activity at 30 µM.
Answer with a number only, understood to be in %.

In [3]: df
Out[3]:
                                   compound  value
0  N=C(N)NCCCCOc1cccc2c1NC(=O)C(CC(=O)O)C2 (centres unmarked)    100
1  N=C(N)NCCCCOc1ccc2c(c1)CC(CC(=O)O)C(=O)N2 (centres unmarked)    100
2  Cl.N=C(N)NCCCCOc1ccc2cc(CC(=O)O)c(=O)[nH]c2c1 [Example 184, Hydrochloride]   67.5
3  CCOC(=O)CC1CCc2cc(OCCCNC(=N)N)ccc2C1 (centres unmarked)     88

I am curious: what remaining activity at 30 µM value has been reported for N=C(N)NCCCCOc1ccc2c(c1)CC(CCC(=O)O)C(=O)N2 (centres unmarked) ? 100

Cited source for all entries: patent US20030109523A1
